molecular target: Sterol 14-alpha demethylase (Trypanosoma cruzi (strain CL Brener)); assay: GSK_TCAKS: pIC50 CYP51 from Trypanosoma cruzi.
Sequence (Q7Z1V1 whole entry): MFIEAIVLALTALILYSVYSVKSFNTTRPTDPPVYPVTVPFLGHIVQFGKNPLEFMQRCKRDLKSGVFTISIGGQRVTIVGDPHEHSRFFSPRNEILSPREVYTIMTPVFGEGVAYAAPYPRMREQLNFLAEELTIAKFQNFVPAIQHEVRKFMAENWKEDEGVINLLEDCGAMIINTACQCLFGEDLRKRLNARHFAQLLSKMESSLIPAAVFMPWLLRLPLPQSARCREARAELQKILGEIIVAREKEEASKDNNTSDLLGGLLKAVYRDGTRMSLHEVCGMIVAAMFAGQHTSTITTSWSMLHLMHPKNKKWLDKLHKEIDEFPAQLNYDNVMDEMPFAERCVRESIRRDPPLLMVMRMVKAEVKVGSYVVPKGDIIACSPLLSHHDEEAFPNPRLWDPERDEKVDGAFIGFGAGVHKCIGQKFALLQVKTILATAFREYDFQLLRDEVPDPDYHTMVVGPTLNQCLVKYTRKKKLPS
Listed compounds paired with reported IC50

compound: COCc1cnc2c(c1SCc1c(F)cccc1Cl)c(=O)n(C)c(=O)n2C
sign: =
IC50 (µM): 25.1

compound: COc1ccnc2[nH]cc(-c3cc(C(=O)N[C@H](CO)c4ccccc4)co3)c12
sign: =
IC50 (µM): 0.794

compound: CCOc1ccc(N(C)S(=O)(=O)c2ccc3[nH]cc(C(=O)NC4CCCC4)c(=O)c3c2)cc1
sign: =
IC50 (µM): 6.31

compound: COc1cc(-c2noc(CC#N)n2)ccc1OC(F)F
sign: =
IC50 (µM): 100

compound: Cn1ccnc1CN1CCc2[nH]cnc2C1c1ccccc1OCc1ccccc1 (stereo unspecified)
sign: =
IC50 (µM): 7.94

compound: Cc1nn2c(=O)c3c([nH]c2c1-c1ccc(Br)cc1)CCCC3
sign: >
IC50 (µM): 100

compound: COc1ccc(NS(=O)(=O)c2cc(NC(=O)c3ccc([N+](=O)[O-])s3)ccc2OC)cc1
sign: =
IC50 (µM): 1

compound: Cn1c(CN2CCN(c3ncc(C(F)(F)F)cc3Cl)CC2)nc2ccncc21
sign: =
IC50 (µM): 0.0794

compound: O=C(Nc1ccc(Br)cn1)c1ccc(Cn2cnc([N+](=O)[O-])n2)cc1
sign: >
IC50 (µM): 100

compound: CCn1c(-c2nonc2N)nc2c([C@@H](C)O)ncc(O[C@H](CN)c3ccccc3)c21
sign: =
IC50 (µM): 25.1

compound: COc1ccc(C(=O)Nc2ccc(NC(=O)CO)cc2)cc1
sign: >
IC50 (µM): 100

compound: COc1ccc(Cl)cc1CC(=O)Nc1nnc(-c2ccccn2)[nH]1
sign: >
IC50 (µM): 100

compound: CC(C)C[C@H](NC(=O)c1ccc(-c2ccccc2)o1)C(=O)NC1(C#N)CC1
sign: >
IC50 (µM): 100

compound: CCCCN(C(=O)c1ccc(NC(=O)C(C)C)cc1)c1ccccc1
sign: =
IC50 (µM): 12.6

compound: O=C(NCc1nnc2n1CCCCC2)c1ccc(-c2ccc(F)cc2)o1
sign: =
IC50 (µM): 79.4

compound: CC(C)(C)Nc1nc(-c2ccccn2)nc2ccccc12
sign: >
IC50 (µM): 100

compound: O=C(Nc1ccc(C(F)(F)F)cc1)NC1(C(=O)NCc2ccco2)CCCCC1
sign: >
IC50 (µM): 31.6

compound: N#Cc1cccc(CN2CCC(N(Cc3cccnc3)C(=O)c3cc(F)c(F)cc3F)CC2)c1
sign: =
IC50 (µM): 0.0501

compound: O=C1NCc2cccc(Nc3nc(N[C@H]4CC[C@H](O)CC4)ncc3Br)c21
sign: >
IC50 (µM): 100

compound: C=CC[C@@H]1CC=C[C@@H](C)N1C(=O)CCc1nnc(-c2ccc3c(c2)OCO3)o1
sign: =
IC50 (µM): 39.8

compound: Cc1ccccc1OCC(=O)N1CCCN(c2cccnn2)CC1
sign: =
IC50 (µM): 0.0794

Entry source: ChEMBL document CHEMBL3430912
